Protocol Text: Plasma protein binding, Sprague-Dawley rat
Type: in vitro ADME
Measured Endpoint: fraction unbound
Note: the reply should be a number with no unit written.

State its fraction unbound for this compound: O=C(N[C@H]1CC[C@@]2(O)[C@H]3Cc4ccc(O)c5c4[C@@]2(CCN3CC2CC2)[C@H]1O5)c1nccs1 [Compound 6]
0.4

----------
Assay Target: CYP1A2 (Homo sapiens)
Construct: Eurofins Panlabs, Inc. (contract laboratory)
Sequence (P05177 whole entry): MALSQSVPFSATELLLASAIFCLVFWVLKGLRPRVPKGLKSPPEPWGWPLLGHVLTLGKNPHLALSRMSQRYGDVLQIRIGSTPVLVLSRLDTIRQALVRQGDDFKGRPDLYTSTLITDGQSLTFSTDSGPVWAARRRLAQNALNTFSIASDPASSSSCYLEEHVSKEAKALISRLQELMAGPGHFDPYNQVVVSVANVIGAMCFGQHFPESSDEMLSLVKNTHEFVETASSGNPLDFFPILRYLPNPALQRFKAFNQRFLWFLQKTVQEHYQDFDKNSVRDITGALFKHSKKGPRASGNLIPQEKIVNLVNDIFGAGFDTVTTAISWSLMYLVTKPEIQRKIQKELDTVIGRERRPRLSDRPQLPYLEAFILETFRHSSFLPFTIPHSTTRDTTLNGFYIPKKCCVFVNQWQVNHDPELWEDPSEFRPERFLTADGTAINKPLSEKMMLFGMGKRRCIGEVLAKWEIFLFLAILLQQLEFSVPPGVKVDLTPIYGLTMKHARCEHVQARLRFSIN
Protocol Text: Cytochrome P450 inhibition assay, CYP1A2
Assay type: in vitro ADME
Condition Description: 1.0E-07 M
Description: The ADMET assessment including the hERG inhibitory activity, plasma protein binding, in vitro metabolic stability profile, CYP inhibitory effect and mutagenic evaluation were conducted by Eurofins Panlabs, Inc.[21],[61],[69]−[71]
Measured Endpoint: inhibition at 100 nM (%)
Hi! Could you send only the number? It should be in %, unit omitted.

State its inhibition at 100 nM for this molecule: O=C(N[C@H]1CC[C@@]2(O)[C@H]3Cc4ccc(O)c5c4[C@@]2(CCN3CC2CC2)[C@H]1O5)c1nccs1
11.4

----------
Protocol Text: Plasma protein binding, human
Format: in vitro ADME
Measured Endpoint: fraction unbound
Note: the reply should be a number with no unit written.

State its fraction unbound for this compound: O=C(N[C@H]1CC[C@@]2(O)[C@H]3Cc4ccc(O)c5c4[C@@]2(CCN3CC2CC2)[C@H]1O5)c1nccs1 [Compound 6]
0.56

----------
Assay Target: δ opioid receptor (DOR) (Homo sapiens)
Construct: expressed in transfected cells; host or cells: CHO (hDOR-CHO), membrane preparation
Sequence (P41143 whole entry): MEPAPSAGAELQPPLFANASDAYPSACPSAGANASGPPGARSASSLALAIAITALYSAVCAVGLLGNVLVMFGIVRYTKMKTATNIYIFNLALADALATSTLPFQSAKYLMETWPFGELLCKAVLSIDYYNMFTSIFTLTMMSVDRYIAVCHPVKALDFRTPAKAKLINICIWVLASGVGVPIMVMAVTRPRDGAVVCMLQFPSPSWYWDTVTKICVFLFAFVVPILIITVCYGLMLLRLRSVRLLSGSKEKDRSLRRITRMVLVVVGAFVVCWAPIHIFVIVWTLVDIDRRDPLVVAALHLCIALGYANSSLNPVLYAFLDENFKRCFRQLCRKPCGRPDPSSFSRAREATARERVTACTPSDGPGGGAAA
Protocol Text: Competitive radioligand binding assay, DOR
Condition Description: ratio of Ki values
So basically, if Selectivity δ/μ comes in under 40 it's yes (1), and if it's 40 or more it's no (0).

As a guide, the following entries are already answered.
{"Smiles Record": "O=C(N[C@H]1CC[C@@]2(O)[C@H]3Cc4ccc(O)c5c4[C@@]2(CCN3CC2CC2)[C@H]1O5)c1nccs1", "Label": "no (0)"}
{"Smiles Record": "O=C(Cc1ccns1)N[C@H]1CC[C@@]2(O)[C@H]3Cc4ccc(O)c5c4[C@@]2(CCN3CC2CC2)[C@H]1O5", "Label": "yes (1)"}
{"Smiles Record": "O=C(CCc1cncs1)N[C@H]1CC[C@@]2(O)[C@H]3Cc4ccc(O)c5c4[C@@]2(CCN3CC2CC2)[C@H]1O5", "Label": "yes (1)"}
{"Smiles Record": "O=C(Cc1cncs1)N[C@H]1CC[C@@]2(O)[C@H]3Cc4ccc(O)c5c4[C@@]2(CCN3CC2CC2)[C@H]1O5", "Label": "yes (1)"}
{"Smiles Record": "O=C(Cc1cncs1)N[C@@H]1CC[C@@]2(O)[C@H]3Cc4ccc(O)c5c4[C@@]2(CCN3CC2CC2)[C@H]1O5", "Label": "no (0)"}

Confirm or reject: Selectivity δ/μ of O=C(CCc1nccs1)N[C@@H]1CC[C@@]2(O)[C@H]3Cc4ccc(O)c5c4[C@@]2(CCN3CC2CC2)[C@H]1O5 lies strictly below 40
no (0)

Confirm or reject: Selectivity δ/μ of O=C(CCc1cncs1)N[C@@H]1CC[C@@]2(O)[C@H]3Cc4ccc(O)c5c4[C@@]2(CCN3CC2CC2)[C@H]1O5 lies strictly below 40
no (0)

----------
Assay Target: MOR (Mus musculus)
Construct: expressed in transfected cells; host or cells: CHO (MOR-CHO), membrane preparation
Sequence (P42866 whole entry): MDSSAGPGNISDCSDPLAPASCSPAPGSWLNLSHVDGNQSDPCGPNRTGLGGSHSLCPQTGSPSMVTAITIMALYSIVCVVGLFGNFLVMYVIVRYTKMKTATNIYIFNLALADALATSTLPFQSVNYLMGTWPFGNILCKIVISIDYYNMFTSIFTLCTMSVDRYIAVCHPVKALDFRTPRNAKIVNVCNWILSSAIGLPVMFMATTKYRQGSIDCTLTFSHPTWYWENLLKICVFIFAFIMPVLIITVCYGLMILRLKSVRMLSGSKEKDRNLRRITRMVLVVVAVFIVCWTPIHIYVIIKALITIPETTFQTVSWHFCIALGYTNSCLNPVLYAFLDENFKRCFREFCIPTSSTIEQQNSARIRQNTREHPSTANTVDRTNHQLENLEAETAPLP
Protocol Text: MOR calcium flux assay in Gαqi5-transfected mMOR-CHO cells
Assay type: cell-based
Below: a set of entries, each annotated with reported pIC50.
pIC50 field: float, defined as -log10 of concentration (mol/L).

State its pIC50 for this compound: O=C(N[C@H]1CC[C@@]2(O)[C@H]3Cc4ccc(O)c5c4[C@@]2(CCN3CC2CC2)[C@H]1O5)c1cccs1 [NAT, reference compound]
7.38

State its pIC50 for this compound: O=C(N[C@@H]1CC[C@@]2(O)[C@H]3Cc4ccc(O)c5c4[C@@]2(CCN3CC2CC2)[C@H]1O5)c1ccns1
8.19

State its pIC50 for this compound: O=C(N[C@H]1CC[C@@]2(O)[C@H]3Cc4ccc(O)c5c4[C@@]2(CCN3CC2CC2)[C@H]1O5)c1nccs1
8.25

State its pIC50 for this compound: O=C(N[C@@H]1CC[C@@]2(O)[C@H]3Cc4ccc(O)c5c4[C@@]2(CCN3CC2CC2)[C@H]1O5)c1nccs1
7.91
